Test system: wheat variety 'OSLO'
Experiment: Chemical hybridizing agent assay for male sterility (male gametocidal activity), foliar spray, seed counts
Format: in vivo
Settings: Table 4; rate 1000 μg/plant
Sterility (%) reference
Readout label: Sterility (%)

COP(=O)(OC)c1cn(C2CCCCC2)n(-c2ccc(Cl)cc2)c1=O	62
CCn1cc(P(=O)(OC)OC)c(=O)n1-c1ccc(Cl)cc1	10
CCn1cc(P(=O)(OC)OC)c(=O)n1-c1cc(C)cc(C)c1	31
CCCCn1cc(P(=O)(OC)OC)c(=O)n1-c1cc(C)cc(C)c1	41

====

System: wheat variety 'OSLO'
Assay: Chemical hybridizing agent assay for male sterility (male gametocidal activity), foliar spray, seed counts
Type: in vivo
Conditions: Table 2; rate 50 μg/plant, foliar, Feekes 8
Readout label: Sterility (%)

COP(=O)(OC)c1cnn(-c2ccc(Br)cc2)c1O	0
COP(=O)([O-])c1cnn(-c2cc(C)cc(C)c2)c1O.[K+]	12
COP(=O)(OC)c1c(-c2ccccc2)nn(-c2cc(C)cc(C)c2)c1O [Compound 10b]	5
